Data credit: patent US20050112126A1

Reported IC50 (mut)/IC50 (wt) by item:
Target: T1, VEGF (human, UniProt P15692-4 27-191, limits assumed)
T1 construct: Biotinylated in the KDR-IgG ELISA, amine-coupled to the chip in BIAcore; also called biotinylated VEGF; vascular endothelial growth factor
T1 sequence (P15692 other isoform, or with tags, fused parts or gaps limits assumed): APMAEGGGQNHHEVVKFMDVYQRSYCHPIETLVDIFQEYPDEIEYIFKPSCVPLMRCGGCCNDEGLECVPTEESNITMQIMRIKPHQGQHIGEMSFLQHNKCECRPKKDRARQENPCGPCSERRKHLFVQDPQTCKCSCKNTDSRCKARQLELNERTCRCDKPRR
Assay: competitive phage-ELISA, relative to pY0192
measured-parameter: IC50 (mut)/IC50 (wt) (ratio)

binder | measured-parameter | numeric-value
pY0192 VL E27A (Fab, V domains shown, Ala-scan variant of pY0192; Fab on phage) VH: EVQLVESGGGLVQPGGSLRLSCAASGYTFTNYGINWVRQAPGKGLEWVGWINTYTGEPTYAADFKRRFTFSLDTSKSTAYLQMNSLRAEDTAVYYCAKYPHYYGSSHWYFDVWGQGTL VL: DIQLTQSPSSLSASVGDRVTITCRANAQLSNYLNWYQQKPGKAPKVLIYFTSSLHSGVPSRFSGSGSGTDFTLTISSLQPEDFATYYCQQYSTVPWTFGQGTKVEIKR | IC50 (mut)/IC50 (wt) | 1
pY0192 VL S52A (Fab, V domains shown, Ala-scan variant of pY0192; Fab on phage) VH: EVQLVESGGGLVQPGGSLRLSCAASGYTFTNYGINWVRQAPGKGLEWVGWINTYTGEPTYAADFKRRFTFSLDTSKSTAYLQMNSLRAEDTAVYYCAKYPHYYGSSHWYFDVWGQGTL VL: DIQLTQSPSSLSASVGDRVTITCRANEQLSNYLNWYQQKPGKAPKVLIYFTASLHSGVPSRFSGSGSGTDFTLTISSLQPEDFATYYCQQYSTVPWTFGQGTKVEIKR | IC50 (mut)/IC50 (wt) | 1
pY0192 VL S56A (Fab, V domains shown, Ala-scan variant of pY0192; Fab on phage) VH: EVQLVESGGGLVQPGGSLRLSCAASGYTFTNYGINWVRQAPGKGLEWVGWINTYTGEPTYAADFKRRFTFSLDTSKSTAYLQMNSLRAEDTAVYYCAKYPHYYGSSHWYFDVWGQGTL VL: DIQLTQSPSSLSASVGDRVTITCRANEQLSNYLNWYQQKPGKAPKVLIYFTSSLHAGVPSRFSGSGSGTDFTLTISSLQPEDFATYYCQQYSTVPWTFGQGTKVEIKR | IC50 (mut)/IC50 (wt) | 1
